target: UniProtKB Q9NWZ3; experiment: IRAK4 Degradation HiBiT Assay; conditions: Jurkat, read-out: Cellular IRAK4 HiBiT: Dmax, Table 5; multiple runs; HiBiT-tagged Jurkat cells, 4 hrs
Sequence (Q9NWZ3 whole entry): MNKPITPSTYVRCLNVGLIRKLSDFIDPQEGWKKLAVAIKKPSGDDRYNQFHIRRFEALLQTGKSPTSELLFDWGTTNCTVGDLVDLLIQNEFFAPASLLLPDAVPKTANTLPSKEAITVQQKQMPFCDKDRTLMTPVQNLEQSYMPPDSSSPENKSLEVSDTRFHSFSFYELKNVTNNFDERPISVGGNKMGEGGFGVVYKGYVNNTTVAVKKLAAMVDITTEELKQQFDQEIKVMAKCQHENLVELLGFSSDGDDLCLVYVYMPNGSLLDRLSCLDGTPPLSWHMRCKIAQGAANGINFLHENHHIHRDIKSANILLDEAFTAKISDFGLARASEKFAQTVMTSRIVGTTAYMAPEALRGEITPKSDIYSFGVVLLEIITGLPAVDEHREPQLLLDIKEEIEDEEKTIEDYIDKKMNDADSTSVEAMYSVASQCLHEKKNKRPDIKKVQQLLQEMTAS
readout-kind: Dmax (%)

Sample answers from the record:
compound: CNc1cc(-c2ccc3cc(C#N)cnn23)ncc1-c1nnc([C@H]2CC[C@@H](NC(=O)C3CCN(c4cccc5c4C(=O)N(C4CCC(=O)NC4=O)C5=O)CC3)CC2)s1 (stereo partly drawn) [Example 135]
Dmax (%): 46
--
compound: CNc1cc(-c2ccc3cc(C#N)cnn23)ncc1-c1nnc(N2CCN(C(=O)COc3cc(-c4scnc4C)ccc3CNC(=O)[C@@H]3C[C@@H](O)CN3C(=O)[C@@H](NC(=O)C3(F)CC3)C(C)(C)C)CC2)s1 [Example 96]
Dmax (%): 90
--
compound: Cc1ncsc1-c1ccc([C@H](C)NC(=O)[C@@H]2C[C@@H](O)CN2C(=O)[C@@H](NC(=O)CCCCCCCCCC(=O)N2CCN(c3nnc(-c4cnc(-c5ccc6cc(C#N)cnn56)cc4NC(C)C)s3)CC2)C(C)(C)C)cc1 [Example 38]
Dmax (%): 34
--
compound: CC(C)Nc1cc(-c2ccc3cc(C#N)cnn23)ncc1-c1nnc(N2CCN(C3CCN(C(=O)c4ccc5c(c4)C(=O)N(C4CCC(=O)NC4=O)C5)CC3)CC2)s1 (stereo not drawn) [Example 77]
Dmax (%): 114
--
compound: CNc1cc(-c2ccc3cc(C#N)cnn23)ncc1-c1nnc([C@H]2CC[C@@H](NC(=O)CCOCCNc3ccc4c(c3)C(=O)N(C3CCC(=O)NC3=O)C4=O)CC2)s1 (stereo partly drawn) [Example 115]
Dmax (%): 78

(1) CNc1cc(-c2ccc3cc(C#N)cnn23)ncc1-c1nnc([C@H]2CC[C@H](NC(=O)CCOCCOc3cc(-c4scnc4C)ccc3CNC(=O)[C@@H]3C[C@@H](O)CN3C(=O)[C@@H](NC(=O)C3(F)CC3)C(C)(C)C)CC2)s1 [Example 58]
(2) Cc1ncsc1-c1ccc([C@H](C)NC(=O)[C@@H]2C[C@@H](O)CN2C(=O)[C@@H](NC(=O)CCOCCOCCOCCOCCOCCC(=O)N2CCN(c3nnc(-c4cnc(-c5ccc6cc(C#N)cnn56)cc4NC(C)C)s3)CC2)C(C)(C)C)cc1 [Example 41]
q: Hi, I'm comparing 1 with 2 and wondering which one has the bigger number for Dmax. Any idea? Please respond with the label that marks your chosen entry.
a: 1
(1: 118%, 2: 47%)

(I) CNc1cc(-c2ccc3cc(C#N)cnn23)ncc1-c1nnc(C23CCC(NC(=O)CCOCCNc4ccc5c(c4)C(=O)N(C4CCC(=O)NC4=O)C5=O)(CC2)CC3)s1 (stereo not drawn) [Example 102]
(II) CNc1cc(-c2ccc3cc(C#N)cnn23)ncc1-c1nnc([C@H]2CC[C@@H](NC(=O)CN3CCC4(CC3)CN(c3ccc5c(c3)C(=O)N(C3CCC(=O)NC3=O)C5=O)C4)CC2)s1 (stereo partly drawn) [Example 127]
q: Select the item with the higher value of Dmax from the options I and II listed. Answer by stating the label of the chosen item.
a: I
